- Test system: F380Y
- runDescription: BK channel mutant inhibitors and activators – cell-based, U2OS BacMam, thallium flux, beta subunits, selectivity assay, profiling panel (AID 1259406);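 further: initial slope of Thallos dye fluorescence rise after thallium is added; log ratio against the mean of 0.3% DMSO vehicle wells on the same plate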
- settings: U2OS BacMam BK variants, at 30 µM
Record form. Attribute: log fold change Tl+ flux. Fill in for each entry.
Give bare numbers.

INSERT INTO results (molecule, resultnumber) VALUES
  ('COc1ccccc1OCC(O)CN1CCN(CC(=O)Nc2c(C)cccc2C)CC1 (stereo not drawn)', 0.091),
  ('CCOc1cc(CC(=O)N[C@@H](CC(C)C)c2ccccc2N2CCCCC2)ccc1C(=O)O', 0.252),
  ('CN(C)CCCSc1ccccc1NC(=O)/C=C/c1ccccc1', 0.0773),
  ('CCOC(=O)c1ncn2c1CN(C)C(=O)c1cc(F)ccc1-2', -0.0521),
  ('CCC(=O)O[C@]1(C(=O)SCF)[C@H](C)C[C@H]2[C@@H]3C[C@H](F)C4=CC(=O)C=C[C@]4(C)[C@@]3(F)[C@@H](O)C[C@@]21C', 0.0283),
  ('CCOC(=O)O[C@]1(C(=O)OCCl)CC[C@H]2[C@@H]3CCC4=CC(=O)C=C[C@]4(C)[C@H]3[C@@H](O)C[C@@]21C', -0.0169),
  ('CCCOc1ccc(C(=O)OCCN(CC)CC)cc1N', 0.0362),
  ('c1cnc(N2CCN(Cc3ccc4c(c3)OCO4)CC2)nc1', -0.0152);

Items follow; give log fold change Tl+ flux for each.
1. Oc1ccc(C2CNCCc3c2cc(O)c(O)c3Cl)cc1 (stereo not drawn)
2. Cc1nc2n(c(=O)c1CCN1CCC(c3noc4cc(F)ccc34)CC1)CCCC2
3. CCc1nn(CCCN2CCN(c3cccc(Cl)c3)CC2)c(=O)n1CCOc1ccccc1
4. CC(c1cc2ccccc2s1)N(O)C(N)=O (stereo not drawn)
5. Cc1cccc(C)c1OCC(C)N (stereo not drawn)
6. COc1cc2nc(N3CCN(C(=O)C4CCCO4)CC3)nc(N)c2cc1OC (stereo not drawn)
7. CC[N+](C)(CC)CCOC(=O)C(O)(c1ccccc1)C1CCCCC1 (stereo not drawn)

Return:
1: 0.0202; 2: 0.0311; 3: -0.403; 4: -0.00504; 5: -0.014; 6: 0.0434; 7: -0.192

Items follow; give log fold change Tl+ flux for each.
1. Cn1c(NCCN(CCO)CCCc2ccc([N+](=O)[O-])cc2)cc(=O)n(C)c1=O
2. CC(C)[C@H](N)C(=O)OCCOCn1cnc2c(=O)[nH]c(N)nc21
3. Nc1ccn([C@H]2CC[C@@H](CO)O2)c(=O)n1
4. COc1cc(OC)c(C(=O)CCCN2CCCC2)c(OC)c1
5. COc1ccc(CN2CCN(C(c3ccc(F)cc3)c3ccc(F)cc3)CC2)c(OC)c1OC
6. C[C@@H]1C[C@H]2[C@@H]3C[C@H](F)C4=CC(=O)C(Cl)=C[C@]4(C)[C@@]3(F)[C@@H](O)C[C@]2(C)[C@@]1(O)C(=O)CO
7. C[C@H]1COc2c(C3(N)CC3)c(F)cc3c(=O)c(C(=O)O)cn1c23
8. CC1(C)O[C@@H]2C[C@H]3[C@@H]4C[C@H](F)C5=CC(=O)C=C[C@]5(C)[C@@]4(F)[C@@H](O)C[C@]3(C)[C@]2(C(=O)CO)O1

Return:
-0.0604
-0.0232
0.0263
-0.00984
-0.0546
0.0685
-0.0868
0.2

Items follow; give log fold change Tl+ flux for each.
1. CN1CCN(C2=Nc3cc(F)ccc3Cc3ccccc32)CC1
2. Cc1ccnc2c1NC(=O)c1cccnc1N2C1CC1
3. COc1cc(C(=O)NS(=O)(=O)c2ccccc2C)ccc1Cc1cn(C)c2ccc(NC(=O)OC3CCCC3)cc12

Return:
1. 0.06
2. -0.00202
3. 0.278

Items follow; give log fold change Tl+ flux for each.
1. Cc1cnc(NC(=O)C2=C(O)c3ccccc3S(=O)(=O)N2C)s1
2. COc1cc2nc(N3CCN(C(=O)C4COc5ccccc5O4)CC3)nc(N)c2cc1OC (stereo not drawn)
3. CC(C)c1nc(CN(C)C(=O)N[C@H](C(=O)N[C@@H](Cc2ccccc2)C[C@H](O)[C@H](Cc2ccccc2)NC(=O)OCc2cncs2)C(C)C)cs1
4. C#C[C@]1(O)CC[C@H]2[C@@H]3CCc4cc(OC)ccc4[C@H]3CC[C@@]21C
5. CCCN1CCCC[C@H]1C(=O)Nc1c(C)cccc1C
6. COC(=O)CCc1ccc(OCC(O)CNC(C)C)cc1 (stereo not drawn)
7. Cc1nc2ccc(CN(C)c3ccc(C(=O)N[C@@H](CCC(=O)O)C(=O)O)s3)cc2c(=O)[nH]1
8. COc1cc(C)nc(-n2nc(C)cc2OC)n1

Return:
1. -0.00196
2. -0.351
3. -0.114
4. -0.0454
5. 0.0271
6. -0.0174
7. -0.025
8. -0.0134

Items follow; give log fold change Tl+ flux for each.
1. OCCOCCN1CCN(C2=Nc3ccccc3Sc3ccccc32)CC1
2. O=C1N(c2ccccc2)c2ccccc2C1(Cc1ccncc1)Cc1ccncc1
3. Cc1ccsc1C(=CCCN1CCC[C@@H](C(=O)O)C1)c1sccc1C
4. OCc1cccnc1
5. CNCC(O)c1ccc(O)c(O)c1 (stereo not drawn)
6. CCN1CC(CCN2CCOCC2)C(c2ccccc2)(c2ccccc2)C1=O (stereo not drawn)

Return:
[0.134, 0.0425, 0.0491, -0.0134, -0.0223, 0.0128]

Items follow; give log fold change Tl+ flux for each.
1. COC(=O)C1=C(C)NC(C)=C(C(=O)O[C@@H]2CCCN(Cc3ccccc3)C2)[C@@H]1c1cccc([N+](=O)[O-])c1
2. CN1CCC(=C2c3ccccc3C=Cc3ccccc32)CC1
3. NC(=O)OCC(COC(N)=O)c1ccccc1

Return:
[-0.0664, 0.15, -0.103]
